assay: in vitro; settings: human, plasma
Where a SMILES comes first, the peptide text is derived from it. Bridges are numbered along the chain shown (N, C = ends). [ ]: non-standard residue; d: D form. The star is where a group is joined. NH(CH2CH2O)2CH2CH2NH2 = NCCOCCOCCN*
// values below are reported remaining at 4 h
Express the result in % but write the number alone.

{"compound": "CC(C)C[C@@H]1NC(=O)[C@@H](NC(=O)CN)CSSC[C@@H](C(=O)NCC(=O)NCCOCCOCCN)NC(=O)CNC(=O)[C@H](CCCNC(=N)N)NC(=O)CNC(=O)[C@H](CO)NC(=O)[C@H](CCCNC(=N)N)NC1=O [KK12, reference compound] (H-GCLRSGRGCG-{NH(CH2CH2O)2CH2CH2NH2}; disulfide 2-9; N-terminus assumed)", "remaining at 4 h / %": 25}

[ask] What measured remaining at 4 h goes with CC(C)C[C@@H]1NC(=O)[C@@H](C)NC(=O)CC[C@@H](C(=O)NCCOCCOCCN)NC(=O)CNC(=O)[C@H](CCCNC(=N)N)NC(=O)CNC(=O)[C@H](CO)NC(=O)[C@H](CCCNC(=N)N)NC1=O [KK51] ([dA]LRSGRGE-{NH(CH2CH2O)2CH2CH2NH2}; lactam N-8) ?
[reply] 92
